system: wild-type ZIKV (Ugandan MR766 strain) in Vero cells; test: ZIKV cytopathic effect (CPE) inhibition qHTS assay, CellTiter-Glo readout; type: cell-based, Zika virus; conditions: Zika virus, Vero, read-out: Max response
readout_label: Emax (%)

C=CC(=O)Nc1ccc2ncnc(Nc3cccc(Br)c3)c2c1	-31.6
CC1=C(CO)C(=O)O[C@@H]([C@@H](C)[C@H]2CC[C@H]3[C@@H]4C[C@H]5O[C@]56[C@@H](O)C=CC(=O)[C@]6(C)[C@H]4CC[C@]23C)C1	-65.4
CC(=O)O[C@@]1(C)C[C@@H](O)[C@]2(O)C=CO[C@@H](O[C@@H]3O[C@H](CO)[C@@H](O)[C@H](O)[C@H]3O)[C@@H]21	1.21
